Target: T1, mouse angiopoietin-2 (mouse, UniProt O35608 19-496, limits assumed)
T1 construct: Bought recombinant protein; also called mouse Ang-2; mAng-2
T1 sequence (looked up): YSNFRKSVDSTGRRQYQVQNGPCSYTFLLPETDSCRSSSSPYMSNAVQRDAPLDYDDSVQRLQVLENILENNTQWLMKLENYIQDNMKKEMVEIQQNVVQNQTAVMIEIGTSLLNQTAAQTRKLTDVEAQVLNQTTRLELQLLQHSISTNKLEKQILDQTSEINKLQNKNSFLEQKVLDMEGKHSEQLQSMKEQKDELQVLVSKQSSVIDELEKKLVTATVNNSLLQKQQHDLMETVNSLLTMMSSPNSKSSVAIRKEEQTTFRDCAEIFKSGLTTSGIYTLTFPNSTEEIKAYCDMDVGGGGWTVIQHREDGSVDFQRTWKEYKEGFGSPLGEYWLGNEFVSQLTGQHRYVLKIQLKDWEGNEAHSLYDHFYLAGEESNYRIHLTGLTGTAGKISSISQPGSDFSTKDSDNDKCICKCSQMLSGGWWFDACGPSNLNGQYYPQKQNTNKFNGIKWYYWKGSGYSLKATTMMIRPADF
Experiment: competition cell ECL; mAng-2 pre-incubated with binder, free Ang-2 captured on HEK:hTie-2 cells (competitor)
IC50 reference
Report as a plain number; the unit nM is understood.

// known answers, use as guide
binder	unit	IC50
hNGAL lipocalin mutein SEQ ID NO: 3 (designed binder, Mutein of mature hNGAL) QDSTSDLIPAPPLSKVPLQQNFQDNQFHGKWYVVGVAGNWYLREDKDPIKMTATIYELKEDKSYNVTQVGFEQKKCKYSIHTFVPGSQPGEFTLGDIKSWPGDTSLLVRVVSTNYNQHAMVFFKGVMQNREVFAITLYGRTKELTSELKENFIRFSKSLGLPENHIVFPVPIDQCIDGSAWSHPQFEK	nM	23.2
hNGAL lipocalin mutein SEQ ID NO: 9 (designed binder, Mutein of mature hNGAL; Biotinylated with NHS-PEG4-Biotin for the SPR assay) QDSTSDLIPAPPLSKVPLQQNFQDNQFHGKWYVVGHAGNYILREDKDPGKMWATIYELKEDKSYDVTEVSFGPKKCNYRIWTFVPGSQPGEFTLGGIKSPPGGTSTLVRVVSTNYNQHAMVFFKHVLQNREFFEITLYGRTKELTSELKENFIRFSKSLGLPENHIVFPVPIDQCIDGSAWSHPQFEK	nM	1.39

Now take the following binder into account.
Identify measured IC50 corresponding to hNGAL lipocalin mutein SEQ ID NO: 12 (designed binder, Mutein of mature hNGAL) QDSTSDLIPAPPLSKVPLQQNFQDNQFHGKWYVVGVAGNWYLREDKDPIKMTATIYELKEDKSYDVTQVGFEQEKCKYSIHTFVPGSQPGEFTLGNIKSWPGDTSPLVRVVSTNYDQHAMVFFKGVMQDREVFAITLYGRTKELTSELKENFIRFSKSLGLPENHIVFPVPIDQCIDGSAWSHPQFEK
3.12
